FYI, the data here is from PubChem BioAssay AID2060907.

Test system: 388556-164-R-J1-PDC complex spheroid viability
Assay: Anticancer human tumor 388556-164-R-J1-PDC patient-derived colon adenocarcinoma cell line growth inhibition [RAS]
Conditions: second compound 0.003 µM; first compound 1 µM; stronger effect = lower value
Reported viability, T/C by item:
Field format: number, assumed %, no unit text.

Please review the entries below; each comes with its answer.
CC(Nc1ccc2c(c1)OCCn1cc(N3C(=O)OCC3C(F)F)nc1-2)C(N)=O (configuration not stated) + CCn1c(-c2cccnc2C(C)OC)c2c3cc(ccc31)N1CCOC(CC(NC(=O)C(C(C)C)N(C)C(=O)C3(F)CCN(C(=O)C#CC(C)(C)N(C)C)CC3)C(=O)N3CCCC(N3)C(=O)OCC(C)(C)C2)C1: 67.4
NC1c2ccccc2OC12CCN(c1cnc3c(N4CCCc5ncccc54)n[nH]c3n1)CC2 (configuration not stated) + CCn1c(-c2cc(N3CCN(C)CC3)cnc2C(C)OC)c2c3cc(ccc31)-c1csc(n1)CC(NC(=O)C1CC1C)C(=O)N1CCCC(N1)C(=O)OCC(C)(C)C2: 30.3
Cc1nc(N2CCC3(CC2)COC(C)C3N)c(CO)nc1Sc1ccnc(N)c1Cl (configuration not stated) + CCn1c(-c2cccnc2C(C)OC)c2c3cc(ccc31)N1CCOC(CC(NC(=O)C(C(C)C)N(C)C(=O)C3(F)CCN(C(=O)C#CC(C)(C)N(C)C)CC3)C(=O)N3CCCC(N3)C(=O)OCC(C)(C)C2)C1: 66.4
C=CC(=O)Nc1cc(Nc2nccc(-c3cn(C)c4ccccc34)n2)c(OC)cc1N(C)CCN(C)C + CCn1c(-c2cc(N3CCN(C)CC3)cnc2C(C)OC)c2c3cc(ccc31)-c1csc(n1)CC(NC(=O)C1CC1C)C(=O)N1CCCC(N1)C(=O)OCC(C)(C)C2: 38.1
CCC(CC)c1cc(NC2CCC(N)C2)n2nccc2n1 (configuration not stated) + CCn1c(-c2cc(N3CCN(C)CC3)cnc2C(C)OC)c2c3cc(ccc31)-c1csc(n1)CC(NC(=O)C1CC1C)C(=O)N1CCCC(N1)C(=O)OCC(C)(C)C2: 81.1
CC(=O)OC12COC1CC(O)C1(C)C(=O)C(O)C3=C(C)C(OC(=O)C(O)C(NC(=O)OC(C)(C)C)c4ccccc4)CC(O)(C(OC(=O)c4ccccc4)C21)C3(C)C (configuration not stated) + CCn1c(-c2cc(N3CCN(C)CC3)cnc2C(C)OC)c2c3cc(ccc31)-c1csc(n1)CC(NC(=O)C1CC1C)C(=O)N1CCCC(N1)C(=O)OCC(C)(C)C2: 59.1

# viability, T/C (molecule: C=CC(=O)N1CCN(c2nc(OCC3CCCN3C)nc3c(F)c(-c4nc(N)cc(C)c4C(F)(F)F)c(Cl)cc23)C(C)C1 (configuration not stated) + CCn1c(-c2cc(N3CCN(C)CC3)cnc2C(C)OC)c2c3cc(ccc31)-c1csc(n1)CC(NC(=O)C1CC1C)C(=O)N1CCCC(N1)C(=O)OCC(C)(C)C2 ) is 84.2

###

Tested on: 388556-164-R-J1-PDC complex spheroid viability
Assay: Anticancer human tumor 388556-164-R-J1-PDC cell line growth inhibition [RAS];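 further: spheroids exposed to compound for 7 days before readout; 100% = DMSO vehicle control luminescence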
Conditions: second compound 0.003 µM; first compound 0.1 µM; stronger effect = lower value
metric: viability, T/C (%)
Express it in %; write the number only.

Consider the reported viability, T/C for these compounds:
CC(Nc1ccc2c(c1)OCCn1cc(N3C(=O)OCC3C(F)F)nc1-2)C(N)=O (centres undefined) + CCn1c(-c2cccnc2C(C)OC)c2c3cc(ccc31)N1CCOC(CC(NC(=O)C(C(C)C)N(C)C(=O)C3(F)CCN(C(=O)C#CC(C)(C)N(C)C)CC3)C(=O)N3CCCC(N3)C(=O)OCC(C)(C)C2)C1: 82.3
O=C(c1ccc(F)c(F)c1Nc1ccc(I)cc1F)N1CC(O)([C@@H]2CCCCN2)C1 + CCn1c(-c2cccnc2C(C)OC)c2c3cc(ccc31)N1CCOC(CC(NC(=O)C(C(C)C)N(C)C(=O)C3(F)CCN(C(=O)C#CC(C)(C)N(C)C)CC3)C(=O)N3CCCC(N3)C(=O)OCC(C)(C)C2)C1: 60.8
CC(C)n1nc(-c2ccc3oc(N)nc3c2)c2c(N)ncnc21 + CCn1c(-c2cc(N3CCN(C)CC3)cnc2C(C)OC)c2c3cc(ccc31)-c1csc(n1)CC(NC(=O)C1CC1C)C(=O)N1CCCC(N1)C(=O)OCC(C)(C)C2: 34.9

Now for the compound whose viability, T/C we want.
Consider CC(=O)OC12COC1CC(O)C1(C)C(=O)C(O)C3=C(C)C(OC(=O)C(O)C(NC(=O)OC(C)(C)C)c4ccccc4)CC(O)(C(OC(=O)c4ccccc4)C21)C3(C)C (centres undefined) + CCn1c(-c2cccnc2C(C)OC)c2c3cc(ccc31)N1CCOC(CC(NC(=O)C(C(C)C)N(C)C(=O)C3(F)CCN(C(=O)C#CC(C)(C)N(C)C)CC3)C(=O)N3CCCC(N3)C(=O)OCC(C)(C)C2)C1 . Its measured viability, T/C is 78.8
